Some compounds, each annotated with its measured composite z-score.
- Tested on: Sonic hedgehog protein (Shh)
- Protocol Text: small-molecule binders of Shh protein, primary screen, biochemical, small-molecule microarray, 635/667 nm fluorescence (AID 1151);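 also: Shh protein binding to compounds spotted on small-molecule microarray slides; score combines spot fluorescence intensity with signal-to-noise across triplicate slides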
- Experimental Setup: small-molecule microarray binding, 635 nm fluorescence; higher = more signal
Give the value as a plain number.

IN: Hello, I am looking for reported composite z-score with Sonic hedgehog protein (Shh) for O=C1O[C@@H](c2ccccc2)[C@@H](c2ccccc2)N2[C@@H](c3ccc(O)cc3)[C@]3(C(=O)Nc4ccc(C#CC5=CCCCC5)cc43)[C@@H](C(=O)N3CCN(c4ncccn4)CC3)[C@H]12 . Could you help?
OUT: 1.21

----------
- Protocol Text: S. cerevisiae growth modulation with rapamycin, primary screen, strain BY4716, OD600, 96 h (AID 1091); also: test concentration not given here
- Experimental Setup: higher = more signal, called active from +8 up or from −8 down
Output schema: class label derived from z-score. Mapping: bin 1 (below 0.3), bin 2 (0.3 to below 2), bin 3 (2 or more)

1) NC(=O)N1C(=O)C2C(C1=O)C1C=C(c3ccc(CO)cc3)C2C(C2CC2)N1Cc1sc2ccccc2c1Cl (stereo not given): bin 1
2) C=C(CCCC)/C(=C/C[C@@H](OC(=O)c1ccncc1)c1cccc(OCCO)c1)c1cnc2ccccc2c1: bin 2

IN: Lab note: sort CN(C)C(=O)[C@@]1(Cc2ccccc2N=[N+]=[N-])COC(c2ccc(OCCCO)cc2)=N1 into the matching z-score band.
OUT: bin 2

IN: Which class is correct for the following compound? CCOC(=O)[C@H]1C/C=C/C[C@H](C(=O)OCC)C(=O)O[C@H]2[C@@H](OC)O[C@H](CO)[C@@H](OC(=O)CCc3ccccc3)[C@@H]2OC1=O
OUT: bin 3

IN: Which class is correct for the following compound? CCOC(=O)C1=CC[C@@H](c2ccccc2)N(S(=O)(=O)c2ccc(C)cc2)C1
OUT: bin 3

IN: Lab note: sort CCC[C@@H]1C[C@@]1(CCC)[C@@H](NP(=O)(c1ccccc1)c1ccccc1)c1ccc(Cl)cc1 into the matching z-score band.
OUT: bin 2

IN: Band for COc1ccc([Si](C)(C)[C@@H]2[C@@H](CCO)O[C@]3(C(=O)N(Cc4cccc(N5C(=O)c6cccc7cccc5c67)c4)c4ccccc43)[C@H]2C)cc1 ?
OUT: bin 3

IN: Which z-score band matches C=CCC(OC(C)=O)[C@@H]1[C@@H](N(Cc2cc3ccccc3o2)C(=O)Cc2ccc(F)cc2)c2cc(OCCCO)ccc2N1C(=O)c1ccc2ccccc2n1 (stereo not given in full) ?
OUT: bin 1

IN: Assign a bin to CN1C(=O)C2C=CC(C(O)c3c(F)cccc3Cl)N(Nc3ccccc3)C2C1=O (stereo not given)
OUT: bin 2

IN: Which band does Cc1ccc(S[C@]2(C(=O)NC(C)C)CC(=O)N(Cc3ccccc3C(F)(F)F)[C@@H]2c2ccc(CO)cc2I)cc1 fall in?
OUT: bin 2

IN: Classify this compound: CCN(CC)c1ccc(N2CC=CC34O[C@@H]5/C=C\CCC(C)OC(=O)C5[C@H]3C(=O)N(CCO)[C@@H]4C2=O)cc1 (stereo not given in full)
OUT: bin 1

IN: Determine which band this compound sits in: CCCC=C(CCC)[C@@H](NP(=O)(c1ccccc1)c1ccccc1)c1ccc(C(F)(F)F)cc1
OUT: bin 1

IN: Class label required: COCCOC(=O)N1C(=O)[C@@]2(c3cc(C#Cc4ccc(OC)cc4)ccc31)[C@H](C(=O)NC[C@H](O)c1ccccc1)[C@H]1C(=O)O[C@H](c3ccccc3)[C@H](c3ccccc3)N1[C@@H]2c1ccc(O)cc1
OUT: bin 2

IN: Categorize the following entry: CCCN1C(=O)[C@]2(Cc3ccccc3)N=C(c3ccc(OCCCO)cc3)O[C@@H]2c2ccccc21
OUT: bin 2

IN: Consider COc1ccc([Si](C)(C)[C@@H]2[C@@H](CCO)O[C@]3(C(=O)N(Cc4cccc(N5C(=O)c6ccccc6Oc6ccccc65)c4)c4ccccc43)[C@H]2C)cc1 . To which z-score class does it belong?
OUT: bin 3

----------
- Protocol Text: small-molecule microarray binders of probe aLefty2, primary screen, biochemical, biotinylated probe, 635/667 nm fluorescence (AID 1094);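 also: score merges spot fluorescence near 667 nm with spot signal-to-noise ratio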
- Experimental Setup: higher = more signal
Param threshold (0.004) applies to composite z-score; output YES when value >= threshold, NO when value < threshold.

Check out these entries, answers already filled in.
1) Cc1ccc(C(C)CC(O)C2C=CC3C(=O)N(c4ccccc4)C(=O)C3N2Nc2ccc(C(C)C)cc2)o1 (stereo unspecified): YES
2) COc1ccc(NN2C(C(O)c3ccco3)C=CC3C(=O)N(C4CCCCC4)C(=O)C32)cc1 (stereo unspecified): YES

Next item in the queue.
IN: Quick check, composite z-score >= 0.004? CC(C)(C)N1CC=CC23O[C@@H]4C=CCOC(=O)[C@@H]4[C@H]2C(=O)N(CCCO)[C@@H]3C1=O (stereo partly specified)
OUT: NO

----------
- System: Fibrinogen (Alexa647-labelled)
- Protocol Text: fibrinogen binders on compound microarrays, profiling panel, artefact control for SMM control-protein annotation, biochemical, small-molecule microarray, 635/667 nm fluorescence (AID 1131);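 also: z-score merges 667 nm fluorescence with per-spot signal-to-noise over triplicate slides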
- Experimental Setup: fibrinogen-A647 binding fluorescence, higher = more signal
Parameter composite z-score: see the listing below.

// solved cases for composite z-score follow
1. CN(C)CCCCNC(=O)[C@H]1C[C@H]2C(=O)N3CCC[C@H]3C(=O)N2[C@H]1c1ccc(O)cc1: -1.05
2. CO[C@H]1O[C@H](CO)[C@@H](OC(=O)Nc2ccc(Oc3ccccc3)cc2)[C@H](OC(=O)Nc2ccccc2-c2ccccc2)[C@@H]1OC(=O)Nc1ccccc1-c1ccccc1: 0.964
3. CC(C)CCC[C@@H](C)[C@H]1CC[C@@]2(C)C3=C(CC[C@]12C)[C@@]1(C)CC[C@H](OC(=O)c2ccc(Br)cc2)C(C)(C)C1CC3 (some centres not stated): 0.487
4. C=C(CCCC)C(=O)CC[C@@H](OC(=O)c1cccnc1)c1ccccc1OCCO: 0.48
5. O=C1O[C@@H](c2ccccc2)[C@@H](c2ccccc2)N2[C@@H](c3ccccc3OCCO)[C@]3(C(=O)Nc4ccc(C#CC5=CCCCC5)cc43)[C@@H](C(=O)NC[C@H](O)c3ccccc3)[C@H]12: 0.883

IN: Item under review: Cc1ccc(S[C@]2(C(=O)NCC(C)C)CC(=O)N(Cc3ccccc3Cl)[C@@H]2c2ccc(CO)cc2I)cc1 . Reported composite z-score?
OUT: 0.137

IN: I would be grateful if you could share the reported composite z-score for CCCCN1CC=CC23O[C@@H]4C=CCOC(=O)[C@@H]4[C@H]2C(=O)N(CCCO)[C@@H]3C1=O (some centres not stated) .
OUT: -1.28

----------
Let's look at some compounds and their measured composite z-score.
- Protocol Text: binders of probe aFGF10 on microarray, primary screen, stem cell growth factor project, biochemical, small-molecule microarray, fluorescence 635/667 (AID 1071);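 also: score merges 667 nm spot intensity and signal to noise from triplicate slides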
- Experimental Setup: higher = more signal
Lab note: jot down the number only; don't add units.

Consider the worked cases shown below.
1. [N-]=[N+]=Nc1ccccc1[C@H]1OC(c2ccc(OCCCO)cc2)=N[C@@]1(CCS(=O)(=O)c1ccccc1)C(=O)N1CCCCC1: 0.699
2. C=CCNC(=O)[C@H]1[C@@H]2C(=O)O[C@@H](c3ccccc3)[C@@H](c3ccccc3)N2[C@@H](c2ccccc2OCCO)[C@]12C(=O)N(C(=O)OCCOC)c1ccc(C#CC3=CCCCC3)cc12: 0.44
3. O=C(NC1CC1)[C@@H]1c2ccccc2C(=O)N(Cc2ccccc2)[C@H]1c1ccc(CO)cc1: 0.207
4. [N-]=[N+]=Nc1ccccc1[C@@H]1OC(c2ccc(OCCCO)cc2)=N[C@]1(CCS(=O)(=O)c1ccccc1)C(=O)NCCN1CCOCC1: 0.664
5. CC=CC(O)C1C=CC2C(=O)N(C)C(=O)C2N1Nc1ccc([N+](=O)[O-])cc1[N+](=O)[O-] (stereo not drawn): -0.0156
6. NC(=O)N1C(=O)C2C(C1=O)C1C=C(c3ccc(CO)cc3)C2C(C2CC2)N1Cc1sc2ccccc2c1Cl (stereo not drawn): 1.17
7. C[C@H]1C2=C3C(CC[C@H]4C(OCc5ccc(F)cc5C(F)(F)F)OC[C@](C)([C@@H]34)N(C(=O)OC(C)(C)C)C2)C(CO)C1CO (stereo partly drawn): -0.0807
8. COc1ccc([Si](C)(C)[C@@H]2[C@@H](CC(=O)N3CCC[C@H]3CO)O[C@]3(C(=O)N(Cc4ccc(N5C(=O)c6cccc7cccc5c67)cc4)c4ccccc43)[C@H]2C)cc1: 0.995
9. COCCOC(=O)N1C(=O)[C@@]2(c3ccccc31)[C@H](c1ccc(OCCO)cc1)N1[C@H](c3ccccc3)[C@H](c3ccccc3)OC(=O)[C@H]1[C@@H]2C(=O)Nc1nc2ccccc2s1: 0.26
10. CC(C)(C)OC(=O)CC[C@]1(C(=O)N2CCOCC2)N=C(c2ccc(OCCCO)cc2)O[C@H]1c1ccccc1: 0.724

IN: Bench note: what composite z-score did NCCCCCCNC(=O)[C@@H]1C[C@@H]2C(=O)N3CCC[C@H]3C(=O)N2[C@@H]1c1ccc(O)cc1 show?
OUT: 0.0841

IN: Value lookup for composite z-score; key = C=CCOC(=O)[C@@H]1[C@H]2C(=O)O[C@H](c3ccccc3)[C@H](c3ccccc3)N2[C@H](c2ccc(OCCOC(=O)[C@H]3C[C@H]4C(=O)N[C@@H](CC(C)C)C(=O)N4[C@H]3c3ccc(O)cc3)cc2)[C@@]12C(=O)Nc1ccc(I)cc12
OUT: 0.868

IN: Name the recorded composite z-score for C=C(COC)/C(=C/C[C@@H](OC(=O)c1ccncc1)c1ccc(CO)o1)c1cnc2ccccc2c1 .
OUT: 1.2
